// provenance: ChEMBL document CHEMBL3244382

Test system: Mus musculus
Assay: Toxicity in PS mouse allografted with mouse P388 cells assessed as change in body weight at 6.2 ug/kg relative to control
Format: organism-based
Settings: in vivo, 0.0062 mg/kg
Catalogue of molecules with associated Activity
Quick reminder: number only, in g, skip the unit.

Use the examples below as a reference point.
CCCS[C@]12C[C@H](OC(=O)N1)[C@@H](C)[C@@H]1O[C@@]1(C)[C@@H](OC(=O)[C@H](C)N(C)C(=O)C(C)C)CC(=O)N(C)c1cc(cc(OC)c1Cl)C/C(C)=C/C=C/[C@H]2OC ... -0.1
COc1cc2cc(c1Cl)N(C)C(=O)C[C@H](OC(=O)C(C)C)[C@]1(C)O[C@H]1[C@H](C)[C@@H]1C[C@@](O)(NC(=O)O1)[C@H](OC)/C=C/C=C(\C)C2OC(C)=O (stereo not given in full) ... -0.9
COc1cc2cc(c1Cl)N(C)C(=O)C[C@H](OC(=O)CBr)[C@]1(C)O[C@H]1[C@H](C)[C@@H]1C[C@@](O)(NC(=O)O1)[C@H](OC)/C=C/C=C(\C)C2 ... 0.2
CCC(=O)N(C)[C@@H](C)C(=O)O[C@H]1CC(=O)N(C)c2cc(cc(OC)c2Cl)C/C(C)=C/C=C/[C@@H](OC)[C@@]2(O)C[C@H](OC(=O)N2)[C@@H](C)[C@@H]2O[C@@]12C ... -2.1
COc1cc2cc(c1Cl)N(C)C(=O)C[C@H](OC(C)=O)[C@]1(C)O[C@H]1[C@H](C)[C@@H]1C[C@@](O)(NC(=O)O1)[C@H](OC)/C=C/C=C(\C)C2 ... 0.5

Query :: Could you share which Activity value was measured for COc1cc2cc(c1Cl)N(C)C(=O)C[C@H](OC(=O)[C@H](C)N(C)C(=O)C(C)C)[C@]1(C)O[C@H]1[C@H](C)[C@@H]1C[C@@](O)(NC(=O)O1)[C@H](OC)/C=C/C=C(\C)C2 ?
Result :: -1.3

Query :: // query Activity value for entry C/C=C/C(=O)O[C@H]1CC(=O)N(C)c2cc(cc(OC)c2Cl)C/C(C)=C/C=C/[C@@H](OC)[C@@]2(O)C[C@H](OC(=O)N2)[C@@H](C)[C@@H]2O[C@@]12C
Result :: -3

Query :: Need Activity, item CCO[C@]12C[C@H](OC(=O)N1)[C@@H](C)[C@@H]1O[C@@]1(C)[C@@H](OC(=O)[C@H](C)N(C)C(C)=O)CC(=O)N(C)c1cc(cc(OC)c1Cl)C/C(C)=C/C=C/[C@H]2OC
Result :: -1.3

Query :: Item under review: COc1cc2cc(c1Cl)NC(=O)/C=C/[C@]1(C)O[C@H]1[C@H](C)[C@@H]1C[C@@](O)(NC(=O)O1)[C@H](OC)/C=C/C=C(\C)C2 . Reported Activity?
Result :: 0.4

Query :: Quick one: Activity for COc1cc2cc(c1Cl)N(C)C(=O)C[C@H](OC(=O)[C@H](C)N(C)C(=O)CC(C)C)[C@]1(C)O[C@H]1[C@H](C)[C@@H]1C[C@@](O)(NC(=O)O1)[C@H](OC)/C=C/C=C(\C)C2 ?
Result :: 0.8
